- Target Or System: Human LBAT (Homo sapiens, UniProt Q14973)
- Construct: kept under Geneticin selection
- Sequence (Q14973 whole entry): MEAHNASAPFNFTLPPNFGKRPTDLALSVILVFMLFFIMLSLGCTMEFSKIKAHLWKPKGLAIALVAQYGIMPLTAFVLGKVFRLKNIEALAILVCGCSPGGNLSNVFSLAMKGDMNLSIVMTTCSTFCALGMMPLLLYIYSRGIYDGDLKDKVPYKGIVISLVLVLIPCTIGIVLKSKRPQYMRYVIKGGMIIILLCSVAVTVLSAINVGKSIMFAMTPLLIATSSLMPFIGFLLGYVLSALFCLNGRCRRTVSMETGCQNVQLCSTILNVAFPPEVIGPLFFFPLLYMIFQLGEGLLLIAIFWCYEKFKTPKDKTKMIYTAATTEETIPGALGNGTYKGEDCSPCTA
- Test Method Notes: LBAT (h/m) assay, human LBAT-overexpressing cells, 3H-taurocholic acid uptake
- Settings: 0.3 μM 3H-taurocholic acid and 7.5 μM cold taurocholic acid, 20 minutes, read-out: hLBAT IC50
Measurement Type: IC50

Please review the following examples before continuing.
{"columns": ["Molecule", "Measurement Type", "Result"],
 "data": [
  ["CCCCC1CN(c2ccccc2)c2cc(SC)c(OCC(OC)C(=O)O)cc2S(=O)(=O)N1C (stereo not drawn) [Example 30]", "IC50", "64 nM"],
  ["CCCCC1CN(c2ccccc2)c2cc(SC)c(OCC3(C(=O)O)CC3)cc2S(=O)(=O)N1C (single isomer, unassigned) [4, enantiomer 1]", "IC50", "673 nM"],
  ["CCCCC1CN(c2ccccc2)c2cc(SCC)c(OCC3(C(=O)O)CC3)cc2S(=O)(=O)N1C (single isomer, unassigned) [8, enantiomer 1]", "IC50", "5 nM"],
  ["CCCCC1CN(c2ccc(F)cc2)c2cc(SCC)c(OCC3(C(=O)O)CC3)cc2S(=O)(=O)N1 (stereo not drawn) [Example 18]", "IC50", "3.3 nM"]
]}

What does the record list as IC50 for CCCCC1CN(c2ccccc2)c2cc(SC)c(OCC(C)(C)C(=O)O)cc2S(=O)(=O)N1C (single isomer, unassigned) [2, enantiomer 2] ?
2.3 nM

What does the record list as IC50 for CCCCC1CN(c2ccccc2)c2cc(SC)c(OCC(OC)C(=O)O)cc2S(=O)(=O)N1C (single isomer, unassigned) [32, diastereomer 1] ?
22 nM
